Where do these numbers come from? They come from patent US6896895B2.

Here, each record is paired with measured Color Fan Value % of Controls data.
System: egg yolk
PROTOCOL_TEXT: Egg yolk colour: reflectance colorimetry and Roche Yolk Colour Fan
Assay type: in vivo, laying hens (ISA Brown)
CONDITION_INFO: egg yolk, laying hens; trial H-25/99; 5.0 mg/kg feed; Table 10
Description: Pigmentation efficacy was assessed in egg yolk, in the back skin of the broiler carcass, and in broiler shanks by reflectance colorimetry accompanied by visual scoring (Roche Colour Fan). The deposition of the ethyl-β-apo-8′-carotenoate (control) and the other carotenoid esters was determined in egg yolk and in the broiler back skin. In addition, the carotenoid levels in plasma and abdominal fat were measured. […] The color data were expressed as CIE L*a*b*-values including h*(hue) and C* (chroma). […]
QUANTITY_KIND: Color Fan Value % of Controls

[
  {
    "COMPOUND": "CCCC(C)COC(=O)C(C)=CC=CC(C)=CC=CC=C(C)C=CC=C(C)C=CC1=C(C)CCCC1(C)C (stereo not drawn)",
    "VAL": "116%"
  },
  {
    "COMPOUND": "CC(C=CC=C(C)C=CC1=C(C)CCCC1(C)C)=CC=CC=C(C)C=CC=C(C)C(=O)OC1CCCCC1 [(16), cyclohexyl beta-apo-8′-carotenoate]",
    "VAL": "108%"
  },
  {
    "COMPOUND": "CCC(CC)COC(=O)C(C)=CC=CC(C)=CC=CC=C(C)C=CC=C(C)C=CC1=C(C)CCCC1(C)C [(9), 2-ethyl-1-butyl beta-apo-8′-carotenoate]",
    "VAL": "101%"
  },
  {
    "COMPOUND": "CCC(C)COC(=O)C(C)=CC=CC(C)=CC=CC=C(C)C=CC=C(C)C=CC1=C(C)CCCC1(C)C (stereo not drawn) [(7), 2-methyl-butyl beta-apo-8′-carotenoate]",
    "VAL": "108%"
  },
  {
    "COMPOUND": "CC(C=CC=C(C)C=CC1=C(C)CCCC1(C)C)=CC=CC=C(C)C=CC=C(C)C(=O)OCC(C)(C)C",
    "VAL": "108%"
  },
  {
    "COMPOUND": "CC(C=CC=C(C)C=CC1=C(C)CCCC1(C)C)=CC=CC=C(C)C=CC=C(C)C(=O)OC(C)CC(C)C (stereo not drawn)",
    "VAL": "101%"
  }
]

---

PROTOCOL_TEXT: Carotenoid ester content and deposition rate in egg yolk of laying hens (HPLC)
Format: in vivo, laying hens (ISA Brown)
CONDITION_INFO: egg yolk, trial H-25/99, 5.0 mg/kg feed, Table 10

[
  {
    "MOLECULE": "CC(C=CC=C(C)C=CC1=C(C)CCCC1(C)C)=CC=CC=C(C)C=CC=C(C)C(=O)OC1CCCCC1 [(16), cyclohexyl beta-apo-8′-carotenoate]",
    "Deposition Rate % of Controls": "99%"
  },
  {
    "MOLECULE": "CCC(C)COC(=O)C(C)=CC=CC(C)=CC=CC=C(C)C=CC=C(C)C=CC1=C(C)CCCC1(C)C (stereo not drawn) [(7), 2-methyl-butyl beta-apo-8′-carotenoate]",
    "Deposition Rate % of Controls": "95%"
  },
  {
    "MOLECULE": "CCCC(C)COC(=O)C(C)=CC=CC(C)=CC=CC=C(C)C=CC=C(C)C=CC1=C(C)CCCC1(C)C (stereo not drawn)",
    "Deposition Rate % of Controls": "112%"
  },
  {
    "MOLECULE": "CCC(CC)COC(=O)C(C)=CC=CC(C)=CC=CC=C(C)C=CC=C(C)C=CC1=C(C)CCCC1(C)C [(9), 2-ethyl-1-butyl beta-apo-8′-carotenoate]",
    "Deposition Rate % of Controls": "87%"
  },
  {
    "MOLECULE": "CC(C=CC=C(C)C=CC1=C(C)CCCC1(C)C)=CC=CC=C(C)C=CC=C(C)C(=O)OC(C)CC(C)C (stereo not drawn)",
    "Deposition Rate % of Controls": "89%"
  },
  {
    "MOLECULE": "CC(C=CC=C(C)C=CC1=C(C)CCCC1(C)C)=CC=CC=C(C)C=CC=C(C)C(=O)OCC(C)(C)C",
    "Deposition Rate % of Controls": "89%"
  }
]

---

System: skin and shanks of broilers
PROTOCOL_TEXT: Reflectance colorimetry and visual classification of skin and shanks of broilers
Type: in vivo, broiler chickens (Ross 308, Ross 508)
Set-up: key: −; (+); +; ++ = good color; o = orange
CONDITION_INFO: dry carcasses, average over doses, Table 6
QUANTITY_KIND: Skin Visual Classification

[
  {
    "COMPOUND": "CCCOC(=O)C(C)=CC=CC(C)=CC=CC=C(C)C=CC=C(C)C=CC1=C(C)CCCC1(C)C [(2), n-propyl beta-apo-8′-carotenoate]",
    "QUANTITY_KIND": "Skin Visual Classification",
    "VAL": "(+)"
  },
  {
    "COMPOUND": "CC(C=CC=C(C)C=CC1=C(C)CCCC1(C)C)=CC=CC=C(C)C=CC=C(C)C(=O)OC(C)CC(C)C (stereo not drawn)",
    "QUANTITY_KIND": "Skin Visual Classification",
    "VAL": "+"
  },
  {
    "COMPOUND": "CC(C=CC=C(C)C=CC1=C(C)CCCC1(C)C)=CC=CC=C(C)C=CC=C(C)C(=O)OCC(C)(C)C",
    "QUANTITY_KIND": "Skin Visual Classification",
    "VAL": "(+)"
  },
  {
    "COMPOUND": "COC(=O)C(C)=CC=CC(C)=CC=CC=C(C)C=CC=C(C)C=CC1=C(C)CCCC1(C)C [(1), methyl beta-apo-8′-carotenoate]",
    "QUANTITY_KIND": "Skin Visual Classification",
    "VAL": "(+)"
  },
  {
    "COMPOUND": "CCCC(C)COC(=O)C(C)=CC=CC(C)=CC=CC=C(C)C=CC=C(C)C=CC1=C(C)CCCC1(C)C (stereo not drawn)",
    "QUANTITY_KIND": "Skin Visual Classification",
    "VAL": "+"
  },
  {
    "COMPOUND": "CC(C=CC=C(C)C=CC1=C(C)CCCC1(C)C)=CC=CC=C(C)C=CC=C(C)C(=O)OC1CCCC1 [(15), cyclopentyl beta-apo-8′-carotenoate]",
    "QUANTITY_KIND": "Skin Visual Classification",
    "VAL": "++"
  }
]

---

PROTOCOL_TEXT: Carotenoid ester content in plasma, back skin and abdominal fat of broilers (HPLC)
Type: in vivo, broiler chickens (Ross 308, Ross 508)
CONDITION_INFO: average over doses, Table 4
Procedure: Pigmentation efficacy was assessed in egg yolk, in the back skin of the broiler carcass, and in broiler shanks by reflectance colorimetry accompanied by visual scoring (Roche Colour Fan). The deposition of the ethyl-β-apo-8′-carotenoate (control) and the other carotenoid esters was determined in egg yolk and in the broiler back skin. In addition, the carotenoid levels in plasma and abdominal fat were measured. […]
QUANTITY_KIND: Analytical Content as Equivalent of Ethyl β-apo-8′-carotenoate in % of control Skin (%)

[
  {
    "MOLECULE": "CCCC(C)COC(=O)C(C)=CC=CC(C)=CC=CC=C(C)C=CC=C(C)C=CC1=C(C)CCCC1(C)C (stereo not drawn) [(11)]",
    "VAL": 69
  },
  {
    "MOLECULE": "COC(=O)C(C)=CC=CC(C)=CC=CC=C(C)C=CC=C(C)C=CC1=C(C)CCCC1(C)C [(1), methyl beta-apo-8′-carotenoate]",
    "VAL": 87
  },
  {
    "MOLECULE": "CCC(CC)COC(=O)C(C)=CC=CC(C)=CC=CC=C(C)C=CC=C(C)C=CC1=C(C)CCCC1(C)C [(9), 2-ethyl-1-butyl beta-apo-8′-carotenoate]",
    "VAL": 55
  },
  {
    "MOLECULE": "CC(C=CC=C(C)C=CC1=C(C)CCCC1(C)C)=CC=CC=C(C)C=CC=C(C)C(=O)OC1CCCCC1 [(16), cyclohexyl beta-apo-8′-carotenoate]",
    "VAL": 44
  },
  {
    "MOLECULE": "CC(C=CC=C(C)C=CC1=C(C)CCCC1(C)C)=CC=CC=C(C)C=CC=C(C)C(=O)OCC(C)(C)C [(8)]",
    "VAL": 76
  },
  {
    "MOLECULE": "CC(C=CC=C(C)C=CC1=C(C)CCCC1(C)C)=CC=CC=C(C)C=CC=C(C)C(=O)OCCC(C)C [(6), isoamyl beta-apo-8′-carotenoate]",
    "VAL": 38
  }
]

---

Test system: egg yolk
PROTOCOL_TEXT: Egg yolk colour: reflectance colorimetry and Roche Yolk Colour Fan
Format: in vivo, laying hens (ISA Brown)
CONDITION_INFO: egg yolk, laying hens; trial H-25/99; 5.0 mg/kg feed; Table 10
QUANTITY_KIND: Chroma C*ab % of Controls

[
  {
    "COMPOUND": "CCC(CC)COC(=O)C(C)=CC=CC(C)=CC=CC=C(C)C=CC=C(C)C=CC1=C(C)CCCC1(C)C [(9), 2-ethyl-1-butyl beta-apo-8′-carotenoate]",
    "VAL": "99%"
  },
  {
    "COMPOUND": "CC(C=CC=C(C)C=CC1=C(C)CCCC1(C)C)=CC=CC=C(C)C=CC=C(C)C(=O)OC(C)CC(C)C (stereo not drawn)",
    "VAL": "74%"
  },
  {
    "COMPOUND": "CC(C=CC=C(C)C=CC1=C(C)CCCC1(C)C)=CC=CC=C(C)C=CC=C(C)C(=O)OC1CCCCC1 [(16), cyclohexyl beta-apo-8′-carotenoate]",
    "VAL": "112%"
  },
  {
    "COMPOUND": "CC(C=CC=C(C)C=CC1=C(C)CCCC1(C)C)=CC=CC=C(C)C=CC=C(C)C(=O)OCC(C)(C)C",
    "VAL": "94%"
  },
  {
    "COMPOUND": "CCCC(C)COC(=O)C(C)=CC=CC(C)=CC=CC=C(C)C=CC=C(C)C=CC1=C(C)CCCC1(C)C (stereo not drawn)",
    "VAL": "101%"
  },
  {
    "COMPOUND": "CCC(C)COC(=O)C(C)=CC=CC(C)=CC=CC=C(C)C=CC=C(C)C=CC1=C(C)CCCC1(C)C (stereo not drawn) [(7), 2-methyl-butyl beta-apo-8′-carotenoate]",
    "VAL": "87%"
  }
]
